# System: redroot pigweed (Amaranthus retroflexus)
# ASSAY OVERVIEW: Test G Post-Emergence Protocol
# Type: in vivo
# EXPERIMENTAL CONTEXT: Amaranthus retroflexus, post-emergence, 312 h, 62.5 g ai/ha, evaluated after 13 days, read-out: Pigweed, Redroot damage rating (100=total damage to plant; 0=no damage to plant)
// reported pest or weed control at 62.5 g/ha per item
# value in %; strip the unit string

Solved entries (count: 3):
CN1C[C@@H](c2ccc(C(F)(F)F)cc2)[C@H](C(=O)Nc2ccccc2)C1=O (racemic): 40
CN1C[C@@H](c2ccc(C(F)(F)F)cc2)[C@H](C(=O)Nc2ncc(Br)cn2)C1=O (racemic): 0
CN1C[C@H](c2cccc(C(F)F)c2)[C@@H](C(=O)Nc2cccc(F)c2F)C1=O (racemic): 0

Now examine the next entry.
Please fill in: pest or weed control at 62.5 g/ha reported for Cc1c(NC(=O)[C@@H]2C(=O)N(C)C[C@H]2c2ccc(C(F)(F)F)cc2)ccc(F)c1F (racemic) = 30
